Assay explanation: Octanol-water partition coefficient, log P of the compound at 10 mM after 24 hrs by UV-vis spectroscopic method
Assay type: physicochemical
Assay readout: logP at 24 h, 10000 µM
Provide a numeric answer; units are not to be included.

Query :: For the molecule CCOC1OC(=O)C(Cl)=C1Nc1ccc(-c2ccccc2)cc1 (stereo unspecified) , what logP at 24 h, 10000 µM is on record?
Result :: 1.33

Query :: Thanks! And COC1OC(=O)C(Cl)=C1Nc1ccc(-c2ccc(N)cc2)cc1 (stereo unspecified) ?
Result :: 0.913

Query :: Now consider CCOC1OC(=O)C(Cl)=C1Nc1ccc(-c2ccc(N)cc2)cc1 (stereo unspecified) .
Result :: 1.64

Query :: Would you kindly repeat that for COC1OC(=O)C(Br)=C1Nc1ccc(-c2ccccc2)cc1 (stereo unspecified) ?
Result :: 1.33

Query :: Moving on to COC1OC(=O)C(Br)=C1Nc1ccc(-c2ccc(N)cc2)cc1 (stereo unspecified)
Result :: 1.46

Query :: What would you report for CCOC1OC(=O)C(Br)=C1Nc1ccc(-c2ccc(N)cc2)cc1 (stereo unspecified) ?
Result :: 1.58

====

Assay explanation: Cytotoxicity against human NCI-EC1 cells assessed as reduction in cell viability after 72 hrs by MTT assay
Format: functional, cell-based
Assay readout: pIC50
pIC50 is a log-scale quantity: -log10 of the concentration expressed in molar.

Query :: Form field: reported pIC50 of CCOC1OC(=O)C(Cl)=C1Nc1ccc(-c2ccccc2)cc1 (stereo not drawn)
Result :: 4.25

Query :: Then CC(=O)OC1OC(=O)C(Br)=C1Nc1ccc(-c2ccccc2)cc1 (stereo not drawn) ?
Result :: 4.46
